target: Beta-lactamase OXA-10 (Pseudomonas aeruginosa, UniProt P14489); test: Competitive inhibition of Pseudomonas aeruginosa OXA10 beta-lactamase at pH 7
Sequence (P14489 whole entry): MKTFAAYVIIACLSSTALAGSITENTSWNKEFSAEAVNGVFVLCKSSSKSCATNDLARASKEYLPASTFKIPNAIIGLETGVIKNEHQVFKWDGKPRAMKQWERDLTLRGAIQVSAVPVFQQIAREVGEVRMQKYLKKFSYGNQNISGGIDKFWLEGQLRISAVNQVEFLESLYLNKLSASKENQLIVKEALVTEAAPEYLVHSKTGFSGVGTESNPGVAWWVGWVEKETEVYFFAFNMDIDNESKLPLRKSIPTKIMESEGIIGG
Reported property: pKi
pKi is defined as minus the log10 of a concentration measured in mol/L.

[in] Test system Beta-lactamase OXA-10 (Pseudomonas aeruginosa, UniProt P14489); read-out pKi; what value for O=C(COc1ccccc1)NC(CC(=O)OCc1ccccc1)(CC(=O)OCc1ccccc1)C(=O)OCc1ccccc1 ?
[out] 4.70

###

target: Beta-lactamase (Bacillus licheniformis); assay: Inhibition of Bacillus licheniformis BS3 beta-lactamase assessed as residual activity at 100 uM at pH 7 using phosphate buffer by spectrophotometry; values are per cent of control
Reported property: residual activity (%)
Number only, in %; omit the unit.

[in] Field request: residual activity | item: NC(CC(=O)O)(CC(=O)O)C(=O)O
[out] 88

[in] Which residual activity value belongs to NC(CC(=O)OCc1ccccc1)(CC(=O)OCc1ccccc1)C(=O)OCc1ccccc1 ?
[out] 100

[in] Can you look up the measured residual activity of COC(=O)C(N)(CC(=O)OCc1ccccc1)CC(=O)OCc1ccccc1 for me?
[out] 100

[in] Which value of residual activity has been reported for CCOC(=O)CC(N)(CC(=O)OCC)C(=O)OCC in the records?
[out] 82

[in] What value of residual activity has been recorded for this entry: O=C(O)CC(CC(=O)O)(NC(=O)COc1ccccc1)C(=O)O
[out] 80

[in] Using the record for CCOC(=O)CCC1(C(=O)OCC)CCC(=O)N1 (stereo unspecified) , report its residual activity.
[out] 85

Values compiled from ChEMBL document CHEMBL1158443.
